Target: MIF (Homo sapiens)
Sequence (P14174 whole entry): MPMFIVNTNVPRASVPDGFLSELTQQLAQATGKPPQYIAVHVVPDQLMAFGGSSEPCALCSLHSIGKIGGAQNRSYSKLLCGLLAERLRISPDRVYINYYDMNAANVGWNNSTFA
Assay: Nuclease assay of Example 3 (MIF inhibitory activity, Table 4)
Type: biochemical
Parameters: concentration or dose not given beside the values
Settings: nuclease assay of Example 3
recordedEndpoint: (%) inhibition of MIF nuclease activity
Hi, when you answer, please include the unit after the number. Thanks!

Use these answered entries as a reference point.
[[record]]
molecule = "COc1ccc(CC[C@H]2OC(=O)[C@@H]3CCCCN3C(=O)C(=O)C(C)(C)COC(=O)C=CCCN(C)C(=O)[C@@H]3CCCN3C(=O)[C@H](COC(C)(C)C)N(C)C(=O)C(c3ccccc3)NC(=O)[C@H](C)N(C)C(=O)COc3cc2ccc3F)cc1OC (some centres unmarked)"
recordedendpoint = "(%) inhibition of MIF nuclease activity"
result = "−2.4%"

[[record]]
molecule = "COc1ccc(CC[C@H]2OC(=O)[C@@H]3CCCCN3C(=O)C(=O)C(C)(C)COC(=O)C=CCCN(C)C(=O)[C@@H]3CCCN3C(=O)[C@H](COC(C)(C)C)N(C)C(=O)[C@H](C)NC(=O)[C@H](C)N(C)C(=O)COc3cccc2c3)cc1OC"
recordedendpoint = "(%) inhibition of MIF nuclease activity"
result = "13.4%"

[[record]]
molecule = "COc1ccc(CC[C@H]2OC(=O)[C@@H]3CCCCN3C(=O)C(=O)C(C)(C)COC(=O)C=CCCN(C)C(=O)[C@@H]3CCCN3C(=O)[C@H](COC(C)(C)C)N(C)C(=O)C(c3ccccc3)NC(=O)[C@H](C)N(C)C(=O)COc3cccc2c3)c(F)c1OC (some centres unmarked)"
recordedendpoint = "(%) inhibition of MIF nuclease activity"
result = "−5.1%"

[[record]]
molecule = "COc1ccc(CC[C@H]2OC(=O)[C@@H]3CCCCN3C(=O)C(=O)C(C)(C)COC(=O)C=CCCN(C)C(=O)[C@H](C(C)C)NC(=O)[C@H](C(C)C)N(C)C(=O)[C@@H](Cc3ccccc3)NC(=O)[C@H](CC(C)C)N(C)C(=O)CCC(=O)Nc3cccc2c3)cc1OC"
recordedendpoint = "(%) inhibition of MIF nuclease activity"
result = "12.6%"

[[record]]
molecule = "CCC[C@@H]1NC(=O)[C@H](COC(C)(C)C)N(C)C(=O)[C@@H](Cc2ccc3ccccc3c2)NC(=O)[C@H](C)N(C)C(=O)COc2cccc(c2)[C@@H](CCc2ccc(OC)c(OC)c2)OC(=O)[C@@H]2CCCCN2C(=O)C(=O)C(C)(C)COC(=O)C=CCCN(C)C1=O"
recordedendpoint = "(%) inhibition of MIF nuclease activity"
result = "59.9%"

[[record]]
molecule = "COc1cc(F)c(CC[C@H]2OC(=O)[C@@H]3CCCCN3C(=O)C(=O)C(C)(C)COC(=O)C=CCCN(C)C(=O)[C@@H]3CCCN3C(=O)[C@H](COC(C)(C)C)N(C)C(=O)C(c3ccccc3)NC(=O)[C@H](C)N(C)C(=O)COc3cccc2c3)cc1OC (some centres unmarked)"
recordedendpoint = "(%) inhibition of MIF nuclease activity"
result = "9.3%"


Provide reported (%) inhibition of MIF nuclease activity for each item, in the same order as listed.
1. COc1ccc(CC[C@H]2OC(=O)[C@@H]3CCCCN3C(=O)C(=O)C(C)(C)COC(=O)C=CCCN(C)C(=O)[C@H](C(C)C)NC(=O)[C@H](COC(C)(C)C)N(C)C(=O)C(c3ccccc3)NC(=O)CN(C)C(=O)COc3cccc2c3)cc1OC (some centres unmarked)
2. COc1ccc(CC[C@H]2OC(=O)[C@@H]3CCCCN3C(=O)C(=O)C(C)(C)COC(=O)C=CCCN(C)C(=O)[C@H](Cc3ccc4ccccc4c3)NC(=O)[C@H](Cc3ccccc3)N(C)C(=O)[C@@H](C)NC(=O)CN(C)C(=O)COc3cccc2c3)cc1OC

Result block:
30.0%
40.2%
